Here, each record is paired with measured inhibition at 0.01 µM data.
# Tested on: Human acute myeloid leukemia cell line: Kasumi-1
# Run Description: Tumor cell proliferation inhibition (CellTiter-Meiluncell luminescent cell viability assay)
# Assay Conditions: Kasumi 1, 96 h, read-out: Inhibition Rate at 10 nM (%)

A selection of reference data follows.
In plain terms, O=C1CCC(N2Cc3cc(CN4CC=C(c5cccs5)CC4)ccc3C2=S)C(=O)N1 (stereo not shown) has a documented inhibition at 0.01 µM of 30 to 40%

# inhibition at 0.01 µM of Cc1ccc(Sc2ccccc2N2CCN(Cc3cccc4c3CN(C3CCC(=O)NC3=O)C4=S)CC2)c(C)c1 (stereo not shown) = -5 to 0%

The recorded inhibition at 0.01 µM for O=C1CCC(N2Cc3c(CN4CCN(c5ccc(Cl)cc5)CC4)cccc3C2=S)C(=O)N1 (stereo not shown) is 50 to 60%

// field: inhibition at 0.01 µM; key: O=C1CCC(N2Cc3cc(CN4CC=C(c5cccc(F)c5Cl)CC4)ccc3C2=S)C(=O)N1 (stereo not shown) ; value = 60 to 70%

New cases:
The recorded inhibition at 0.01 µM for entry Nc1cccc2c1C(=O)N(C1CCC(=O)NC1=O)C2=O (stereo not shown) [pomalidomide, reference compound] equals -10 to -5%

Input O=C1CCC(N2Cc3cc(CN4CCC(c5cccc(F)c5F)CC4)ccc3C2=S)C(=O)N1 (stereo not shown) . Output inhibition at 0.01 µM: 5 to 10%

Field inhibition at 0.01 µM (entry O=C1CCC(N2Cc3cc(CN4CCN(c5ccccc5)CC4)ccc3C2=S)C(=O)N1 (stereo not shown) ) reads 10 to 20%

Consider Cc1cc(C2CCN(Cc3ccc4c(c3)CN(C3CCC(=O)NC3=O)C4=S)CC2)cs1 (stereo not shown) . Its measured inhibition at 0.01 µM is 0 to 5%

====

# Experimental Target: human Cereblon WT GST-tagged protein (Homo sapiens, UniProt Q96SW2)
# Construct: purchased CISBIO 64BDCRBNPEH
# Sequence (Q96SW2 whole entry): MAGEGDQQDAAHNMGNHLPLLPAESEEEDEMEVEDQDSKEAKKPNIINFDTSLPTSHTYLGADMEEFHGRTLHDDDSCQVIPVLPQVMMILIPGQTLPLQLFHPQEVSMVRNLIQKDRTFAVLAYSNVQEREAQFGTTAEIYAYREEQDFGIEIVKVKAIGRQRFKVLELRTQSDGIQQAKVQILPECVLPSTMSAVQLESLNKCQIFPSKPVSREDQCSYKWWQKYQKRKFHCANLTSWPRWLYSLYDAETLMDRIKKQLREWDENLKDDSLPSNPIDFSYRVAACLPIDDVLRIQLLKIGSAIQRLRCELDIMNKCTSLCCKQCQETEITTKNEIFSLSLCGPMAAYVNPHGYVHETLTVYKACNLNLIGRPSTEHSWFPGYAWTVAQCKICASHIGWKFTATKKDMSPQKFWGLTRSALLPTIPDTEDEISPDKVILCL
# Run Description: CRBN-binding affinity, HTRF (CEREBLON BINDING kit)
# Assay Conditions: read-out: Inhibition Rate at 0.5 µM (%)
The reader will find reported inhibition at 0.5 µM values listed item by item below.

Previously resolved entries follow.
What the record says about O=C1CCC(N2Cc3cc(CN4CCC(c5ccc(Cl)cc5)CC4)ccc3C2=S)C(=O)N1 (stereo not shown) : inhibition at 0.5 µM is 40 to 53%

GET /value?item= CC1(C)CCC(CN2CC3CCC(C2)N3Cc2ccc3c(c2)CN(C2CCC(=O)NC2=O)C3=S)=C(c2ccc(Cl)cc2)C1 (stereo not shown) &field=inhibition at 0.5 µM returns 53 to 60%

inhibition at 0.5 µM reading for O=C1CCC(N2Cc3c(CN4CCC(c5cccc6cnccc56)CC4)cccc3C2=S)C(=O)N1 (stereo not shown) : 60 to 80%

Continuing:
Record O=C1CCC(N2Cc3c(CN4CCN(C(c5ccc(F)cc5)c5ccc(F)cc5)CC4)cccc3C2=S)C(=O)N1 (stereo not shown) , field inhibition at 0.5 µM: 30 to 40%

====

The following compounds are shown together with reported inhibition at 0.5 µM values.
# Experimental Target: human Cereblon WT GST-tagged protein (Homo sapiens)
# Construct: purchased CISBIO 64BDCRBNPEH
# Run Description: CRBN-binding affinity, HTRF (CEREBLON BINDING kit)
# Assay Conditions: read-out: Inhibition Rate at 0.5 µM (%)

Known value: human Cereblon WT GST-tagged protein (Homo sapiens) inhibition at 0.5 µM of the compound O=C1CCC(N2Cc3cc(CN4CCC(N5C(=O)COc6cc(F)ccc65)CC4)ccc3C2=S)C(=O)N1 (stereo not shown) [GT-09273] equals 60 to 80%

Record O=C1CCC(N2Cc3cc(CN4CCC(n5c(=O)[nH]c6cc(F)ccc65)CC4)ccc3C2=S)C(=O)N1 (stereo not shown) [GT-09263] ; system human Cereblon WT GST-tagged protein (Homo sapiens); inhibition at 0.5 µM = 60 to 80%

I looked up O=C1CCC(N2Cc3cc(CN4CCN(c5ccnc(Cl)c5Cl)CC4)ccc3C2=S)C(=O)N1 (stereo not shown) [GT-09354] and its inhibition at 0.5 µM for human Cereblon WT GST-tagged protein (Homo sapiens) was 60 to 80%

human Cereblon WT GST-tagged protein (Homo sapiens) data for O=C1CCC(N2Cc3c(CN4CCN(C(c5ccc(Cl)cc5)c5ccc(Cl)cc5)CC4)cccc3C2=S)C(=O)N1 (stereo not shown) [GT-08203] ; its inhibition at 0.5 µM: 30 to 40%

Entry O=C1CCC(N2Cc3cc(CN4CCN(c5ncccn5)CC4)ccc3C2=S)C(=O)N1 (stereo not shown) [GT-09252] ; assay system human Cereblon WT GST-tagged protein (Homo sapiens); inhibition at 0.5 µM recorded at 60 to 80%

New cases:
Here O=C1CCC(N2Cc3c(CN4CCN(c5ncccc5Cl)CC4)cccc3C2=S)C(=O)N1 (stereo not shown) [GT-08696] was tested on human Cereblon WT GST-tagged protein (Homo sapiens), and its inhibition at 0.5 µM came to 60 to 80%

Measured on human Cereblon WT GST-tagged protein (Homo sapiens), O=C1CCC(N2Cc3cc(CN4CC=C(c5ncnc6scc(-c7ccccc7)c56)CC4)ccc3C2=S)C(=O)N1 (stereo not shown) [GT-09320] has a documented inhibition at 0.5 µM of 60 to 80%

Summary line: Cc1ccc(N2CCN(Cc3ccc4c(c3)CN(C3CCC(=O)NC3=O)C4=S)CC2)c(C)c1 (stereo not shown) [GT-08614] , human Cereblon WT GST-tagged protein (Homo sapiens), reported inhibition at 0.5 µM = 30 to 40%

====

# Experimental Target: human Cereblon WT GST-tagged protein (Homo sapiens)
# Construct: purchased CISBIO 64BDCRBNPEH
# Run Description: CRBN-binding affinity, HTRF (CEREBLON BINDING kit)
# Assay Conditions: read-out: Inhibition Rate at 0.5 µM (%)
Measured Parameter: inhibition at 0.5 µM

For O=C1CCC(N2Cc3cc(CN4CCN(C(c5ccc(Cl)cc5)c5ccc(Cl)cc5)CC4)ccc3C2=S)C(=O)N1 (stereo not shown) [GT-07737] on human Cereblon WT GST-tagged protein (Homo sapiens), measured inhibition at 0.5 µM was 30 to 40%

Hey, human Cereblon WT GST-tagged protein (Homo sapiens) data for O=C1CCC(N2Cc3c(CN4CCC(Nc5ccccc5-c5ccc(Cl)cc5)CC4)cccc3C2=S)C(=O)N1 (stereo not shown) [GT-09034] : inhibition at 0.5 µM came out at 40 to 53%

Record O=C1CCC(N2Cc3c(CN4CCC(c5cccc(C(F)(F)F)c5)CC4)cccc3C2=S)C(=O)N1 (stereo not shown) [GT-08599] ; system human Cereblon WT GST-tagged protein (Homo sapiens); inhibition at 0.5 µM = 30 to 40%

Simply: O=C1CCC(N2Cc3c(CN4CCC(c5cccc(Cl)c5Cl)CC4)cccc3C2=S)C(=O)N1 (stereo not shown) [GT-08269] , human Cereblon WT GST-tagged protein (Homo sapiens), inhibition at 0.5 µM = 30 to 40%

====

# Experimental Target: human Cereblon WT GST-tagged protein (Homo sapiens)
# Construct: purchased CISBIO 64BDCRBNPEH
# Run Description: CRBN-binding affinity, HTRF (CEREBLON BINDING kit)
# Assay Conditions: CRBN binding, HTRF, 3 hours at room temperature; read-out: HTRF IC50
Measured Parameter: IC50

Previously resolved entries follow.
Looking up O=C1CCC(N2Cc3ccc(CN4CCc5sccc5C4)cc3C2=S)C(=O)N1 (centres unmarked) [GT-05039] , I see its IC50 listed as 0.1 to 0.5 µM

// IC50 lookup, compound = Cc1cscc1C1CCN(Cc2ccc3c(c2)CN(C2CCC(=O)NC2=O)C3=S)CC1 (centres unmarked) [GT-05146] , result: 0.1 to 0.5 µM

In plain terms, Cc1ccsc1C1=CCN(Cc2ccc3c(c2)C(=S)N(C2CCC(=O)NC2=O)C3)CC1 (centres unmarked) [GT-05032] has a documented IC50 of 0.1 to 0.5 µM

Entry O=C1CCC(N2Cc3ccc(CN4CCN(c5nsc6ccccc56)CC4)cc3C2=S)C(=O)N1 (centres unmarked) [GT-05040] — recorded IC50 = 0.1 to 0.5 µM

Entry under test: N#Cc1ccc(N2CCN(Cc3ccc(COc4cccc5c4CN([C@H]4CCC(=O)NC4=O)C5=S)cc3)CC2)c(F)c1 [GT-05957] . Its IC50 was 0.1 to 0.5 µM

Reported IC50 for O=C1CCC(N2Cc3cc(CN4CCC(N5CCc6cc(F)ccc65)CC4)ccc3C2=S)C(=O)N1 (centres unmarked) [GT-05244] was 0.1 to 0.5 µM

IC50 recorded for this compound, O=C1CCC(N2Cc3cc(CN4CCN(C(c5ccccc5)c5ccccn5)CC4)ccc3C2=S)C(=O)N1 (centres unmarked) [GT-05103] , is 0.1 to 0.5 µM

// recorded IC50 for O=C1CCC(N2Cc3cc(CN4CC=C(c5ccco5)CC4)ccc3C2=S)C(=O)N1 (centres unmarked) [GT-05147] : < 0.1 µM

The recorded IC50 for Cc1ccc(Sc2ccccc2N2CCN(Cc3ccc4c(c3)C(=S)N(C3CCC(=O)NC3=O)C4)CC2)c(C)c1 (centres unmarked) [GT-05038] is 0.5 to 1 µM

Record O=C1CCC(N2Cc3cc(CN4CCC(c5noc6cc(F)ccc56)CC4)ccc3C2=S)C(=O)N1 (centres unmarked) [GT-05089] , field IC50: < 0.1 µM

Continuing:
IC50 for O=C1CCC(N2Cc3cc(CN4CCN(c5cccc(Cl)c5Cl)CC4)ccc3C2=S)C(=O)N1 (centres unmarked) [GT-04474] is 0.5 to 1 µM

Input O=C1CCC(N2Cc3cc(CN4CC=C(c5ccnc6cc(F)ccc56)CC4)ccc3C2=S)C(=O)N1 (centres unmarked) [GT-05245] . Output IC50: < 0.1 µM

Measured IC50 of O=C1CC[C@H](N2Cc3c(OCc4ccc(CN5CCOCC5)cc4)cccc3C2=S)C(=O)N1 [GT-05712] : < 0.1 µM

response.value for O=C1CCC(N2Cc3ccccc3C2=S)C(=O)N1 (centres unmarked) [GT-05563] (field: IC50) = < 0.1 µM

IC50 reading for O=C1CCC(N2Cc3cc(CN4CCC(c5cccc(Cl)c5Cl)CC4)ccc3C2=S)C(=O)N1 (centres unmarked) [GT-05150] : 0.5 to 1 µM

Per the record, O=C1CCC(N2Cc3cc(CN4CCC(c5ccco5)CC4)ccc3C2=S)C(=O)N1 (centres unmarked) [GT-05148] has IC50 of 0.1 to 0.5 µM

Source: patent EP4745135A1
